test: clinical; details: human, in vivo, Clrenal
Counter-ions that a name gives are not always drawn.
Value Type: CL renal

Ask | Please give the measured CL renal for this molecule: N=C1CCCN1Cc1[nH]c(=O)[nH]c(=O)c1Cl [TPI, tipiracil hydrochloride]
Reply | 555 mL/min
